Where do the numbers come from? From patent US9096571B2.

# SYSTEM_NAME: human-derived 11β-HSD1 (h11β-HSD1) enzyme (Homo sapiens)
# Construct: expressed in transfected cells; host or cells: HEK-293 cells, transfected with Fugene 6
# TEST: Cell assay on 11β-HSD1 (HEK-293 cells overexpressing h11β-HSD1, cortisone to cortisol, cortisol ELISA)
# Assay type: cell-based
# CONDITION_SUMMARY: HEK293; 100 μM compound; HEK-293 cells transfected with h11β-HSD1; read-out: hHSD1 inhibiting activity, % inhibition at 100 μM
# Method: In order to investigate inhibitory effects of the compounds according to the present invention on activity of human-derived 11β-HSD1 (h11β-HSD1) enzyme, the following experiment was performed. […] When the cells were incubated at 70-80% confluency, the cells were detached with trypsin, and the number of cells was measured by using a Hemacytometer. […]
MEASURED_QUANTITY: inhibition at 100 µM (%)

C[C@H]1CN(c2ccc(S(C)(=O)=O)cc2F)CCN1c1nccc(C(=O)N[C@H]2C3CC4CC2C[C@](O)(C4)C3)n1 :: 86
C[C@@H]1CN(S(C)(=O)=O)CCN1c1cccc(C(=O)N[C@H]2C3CC4CC2C[C@](O)(C4)C3)n1 :: 76
C[C@@H]1CN(c2ccc(N)nc2)CCN1c1cccc(C(=O)N[C@H]2C3CC4CC2C[C@](O)(C4)C3)n1 :: 79
COc1ccc(N2CCN(c3cccc(C(=O)N[C@H]4C5CC6CC4C[C@](O)(C6)C5)n3)[C@H](C)C2)cc1C(N)=O :: 87
COc1ccc(N2CCN(c3nccc(C(=O)N[C@H]4C5CC6CC4C[C@](O)(C6)C5)n3)[C@H](C)C2)c(F)c1 :: 78
O=C(N[C@H]1C2CC3CC1C[C@](O)(C3)C2)c1cccc(N2CCc3ccccc3C2)n1 :: 82
O=C(N[C@H]1C2CC3CC1C[C@](O)(C3)C2)c1cccc(N2CCC(c3ccc(F)cn3)CC2)n1 :: 77

====

# SYSTEM_NAME: human-derived 11β-HSD1 (h11β-HSD1) enzyme (Homo sapiens)
# Construct: expressed in transfected cells; host or cells: HEK-293 cells, transfected with Fugene 6
# TEST: Cell assay on 11β-HSD1 (HEK-293 cells overexpressing h11β-HSD1, cortisone to cortisol, cortisol ELISA)
# Assay type: cell-based
# CONDITION_SUMMARY: HEK293; 100 μM compound; HEK-293 cells transfected with h11β-HSD1; read-out: hHSD1 inhibiting activity, % inhibition at 100 μM
MEASURED_QUANTITY: inhibition at 100 µM (%)

O=C(N[C@H]1C2CC3CC1C[C@](O)(C3)C2)c1cccc(N2CCN(c3ccc(F)cn3)CC2)n1 :: 79
Cc1ccc(C2CCN(c3cccc(C(=O)N[C@H]4C5CC6CC4C[C@](O)(C6)C5)n3)CC2)nc1 :: 78
CS(=O)(=O)c1ccc(N2CCN(c3cccc(C(=O)N[C@H]4C5CC6CC4C[C@](O)(C6)C5)n3)CC2)cc1 :: 87
COc1ccc(N2CCCN(c3cccc(C(=O)N[C@H]4C5CC6CC4C[C@](O)(C6)C5)n3)CC2)c(F)c1 :: 85

====

# SYSTEM_NAME: human-derived 11β-HSD1 (h11β-HSD1) enzyme (Homo sapiens)
# Construct: expressed in transfected cells; host or cells: HEK-293 cells, transfected with Fugene 6
# TEST: Cell assay on 11β-HSD1 (HEK-293 cells overexpressing h11β-HSD1, cortisone to cortisol, cortisol ELISA)
# Format: cell-based
# CONDITION_SUMMARY: HEK293; 10 μM compound; HEK-293 cells transfected with h11β-HSD1; read-out: hHSD1 inhibiting activity, % inhibition at 10 μM
MEASURED_QUANTITY: inhibition at 10 µM (%)

Solved entries (count: 2):
COc1ccc(N2CCN(c3cccc(C(=O)N[C@H]4C5CC6CC4C[C@](O)(C6)C5)n3)[C@H](C)C2)cc1C(N)=O [Example 150] :: 76
COc1ccc(N2CCN(c3nccc(C(=O)N[C@H]4C5CC6CC4C[C@](O)(C6)C5)n3)[C@H](C)C2)c(F)c1 [Example 231] :: 42

(a) COc1ccc(N2CCCN(c3cccc(C(=O)N[C@H]4C5CC6CC4C[C@](O)(C6)C5)n3)CC2)c(F)c1 [Example 124]
(b) O=C(N[C@H]1C2CC3CC1C[C@](O)(C3)C2)c1cccc(N2CCC(c3ccccc3)CC2)n1 [Example 47]
input: Name the one with the greater inhibition at 10 µM value, either a or b as given. # respond with the chosen item's label
output: a
(a: 54%, b: 36%)

====

# SYSTEM_NAME: human-derived 11β-HSD1 (h11β-HSD1) enzyme (Homo sapiens, UniProt P28845)
# Construct: expressed in transfected cells; host or cells: HEK-293 cells, transfected with Fugene 6
# Sequence (P28845 whole entry): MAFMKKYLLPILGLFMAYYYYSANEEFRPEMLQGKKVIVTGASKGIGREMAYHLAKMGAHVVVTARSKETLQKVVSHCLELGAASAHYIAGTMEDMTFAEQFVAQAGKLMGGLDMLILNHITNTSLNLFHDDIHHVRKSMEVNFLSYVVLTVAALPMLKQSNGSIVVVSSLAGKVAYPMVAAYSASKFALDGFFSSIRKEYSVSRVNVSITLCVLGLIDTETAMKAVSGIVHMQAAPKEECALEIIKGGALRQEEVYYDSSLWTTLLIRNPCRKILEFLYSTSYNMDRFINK
# TEST: Cell assay on 11β-HSD1 (HEK-293 cells overexpressing h11β-HSD1, cortisone to cortisol, cortisol ELISA)
# Assay type: cell-based
# CONDITION_SUMMARY: HEK293; 10 μM compound; HEK-293 cells transfected with h11β-HSD1; read-out: hHSD1 inhibiting activity, % inhibition at 10 μM
MEASURED_QUANTITY: inhibition at 10 µM (%)

C[C@@H]1CN(CC(C)(C)O)CCN1c1cccc(C(=O)N[C@H]2C3CC4CC2C[C@](O)(C4)C3)n1 :: 41
O=C(N[C@H]1C2CC3CC1C[C@](O)(C3)C2)c1cccc(N2CCC(c3ccc(F)cn3)CC2)n1 :: 58
C[C@@H]1CN(S(C)(=O)=O)CCN1c1cccc(C(=O)N[C@H]2C3CC4CC2C[C@](O)(C4)C3)n1 :: 41

====

# SYSTEM_NAME: human-derived 11β-HSD1 (h11β-HSD1) enzyme (Homo sapiens, UniProt P28845)
# Construct: expressed in transfected cells; host or cells: HEK-293 cells, transfected with Fugene 6
# TEST: Cell assay on 11β-HSD1 (HEK-293 cells overexpressing h11β-HSD1, cortisone to cortisol, cortisol ELISA)
# Assay type: cell-based
# CONDITION_SUMMARY: HEK293; 100 μM compound; HEK-293 cells transfected with h11β-HSD1; read-out: hHSD1 inhibiting activity, % inhibition at 100 μM
MEASURED_QUANTITY: inhibition at 100 µM (%)

O=C(N[C@H]1C2CC3CC1C[C@](O)(C3)C2)c1cccc(N2CCC(c3ccccc3)CC2)n1 [Example 47] :: 96
C[C@@H]1CN(c2ccc(C(C)(C)O)cc2)CCN1c1cccc(C(=O)N[C@H]2C3CC4CC2C[C@](O)(C4)C3)n1 [Example 173] :: 87
CNC(=O)c1cc(N2CCN(c3cccc(C(=O)N[C@H]4C5CC6CC4C[C@](O)(C6)C5)n3)[C@H](C)C2)ccc1OC [Example 151] :: 85
CC1CCCCN1c1cccc(C(=O)N[C@H]2C3CC4CC2C[C@](O)(C4)C3)n1 (stereo partly shown) [Example 61] :: 83
C[C@@H]1CN(c2ccc(OCC(N)=O)c(Cl)c2)CCN1c1cccc(C(=O)N[C@H]2C3CC4CC2C[C@](O)(C4)C3)n1 [Example 190] :: 89
C[C@@H]1CN(CC(C)(C)O)CCN1c1cccc(C(=O)N[C@H]2C3CC4CC2C[C@](O)(C4)C3)n1 [Example 192] :: 85
COc1ccc(N2CCN(c3cccc(C(=O)N[C@H]4C5CC6CC4C[C@](O)(C6)C5)n3)[C@H](C)C2)nc1 [Example 118] :: 84

====

# SYSTEM_NAME: human-derived 11β-HSD1 (h11β-HSD1) enzyme (Homo sapiens)
# Construct: expressed in transfected cells; host or cells: HEK-293 cells, transfected with Fugene 6
# TEST: Cell assay on 11β-HSD1 (HEK-293 cells overexpressing h11β-HSD1, cortisone to cortisol, cortisol ELISA)
# Assay type: cell-based
# CONDITION_SUMMARY: HEK293; 10 μM compound; HEK-293 cells transfected with h11β-HSD1; read-out: hHSD1 inhibiting activity, % inhibition at 10 μM
# Experimental: In order to investigate inhibitory effects of the compounds according to the present invention on activity of human-derived 11β-HSD1 (h11β-HSD1) enzyme, the following experiment was performed. […] When the cells were incubated at 70-80% confluency, the cells were detached with trypsin, and the number of cells was measured by using a Hemacytometer. […]
MEASURED_QUANTITY: inhibition at 10 µM (%)

Solved entries (count: 2):
C[C@@H]1CN(c2ccc(N)nc2)CCN1c1cccc(C(=O)N[C@H]2C3CC4CC2C[C@](O)(C4)C3)n1 :: 48
COc1ccc(N2CCN(c3cccc(C(=O)N[C@H]4C5CC6CC4C[C@](O)(C6)C5)n3)[C@H](C)C2)nc1 :: 64

(I) COc1ccc(N2CCN(c3cccc(C(=O)N[C@H]4C5CC6CC4C[C@](O)(C6)C5)n3)[C@H](C)C2)cn1
(II) O=C(N[C@H]1C2CC3CC1C[C@](O)(C3)C2)c1cccc(N2CCN(c3ccc(F)cn3)CC2)n1
input: // pick min by inhibition at 10 µM: I , II # respond with the chosen item's label
output: II
